Molecular target: human PAH with the R408W mutation (Homo sapiens, UniProt P00439, R408W)
Construct: expressed in transfected cells
Sequence (P00439 whole entry R408W): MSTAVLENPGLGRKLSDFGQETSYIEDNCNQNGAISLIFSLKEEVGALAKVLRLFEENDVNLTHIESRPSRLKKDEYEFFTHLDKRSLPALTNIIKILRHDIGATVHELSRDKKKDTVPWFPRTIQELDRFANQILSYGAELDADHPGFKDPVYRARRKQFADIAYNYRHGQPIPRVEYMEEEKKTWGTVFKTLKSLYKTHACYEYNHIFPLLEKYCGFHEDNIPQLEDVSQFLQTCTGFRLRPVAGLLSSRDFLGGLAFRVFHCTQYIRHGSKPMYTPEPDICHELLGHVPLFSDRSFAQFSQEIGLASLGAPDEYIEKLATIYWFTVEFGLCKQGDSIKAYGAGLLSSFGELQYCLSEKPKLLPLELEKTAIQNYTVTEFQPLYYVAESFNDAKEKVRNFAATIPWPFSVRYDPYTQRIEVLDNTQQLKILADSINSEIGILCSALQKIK
Experiment: Cell Based Phenylalanine Flux Assay;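 further: after compound treatment, cells received sepiapterin plus isotope-labelled Phenylalanine for 4 hours, then labelled Tyrosine in the medium was quantified, 10-point 2-fold dilution series run in duplicate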
Settings: A375 cells expressing human R408W PAH; 24 hrs compound incubation; 13C-Tyrosine by LC-MS; average where tested multiple times; read-out: AC50
Reported AC50 values are given for each entry in this list.

## Task Provide only the value of recorded AC50 for O=C(c1nnc(C2CC2)o1)N1CCc2[nH]cnc2[C@H]1c1cc2c(Cl)cccn2n1 [Example 1094]
## Result < 500 nM

## Task Provide only the value of recorded AC50 for Cc1c(-c2nnc(C(=O)N3CCc4[nH]cnc4[C@@H]3c3cc4c(F)cccn4n3)o2)cnn1C [Example 955]
## Result > 5000 nM

## Task Provide only the value of recorded AC50 for O=C(c1nnc(C2CCC2)o1)N1CCc2[nH]cnc2[C@H]1c1cc2cccc(F)n2n1 [Example 1575]
## Result < 500 nM

## Task Provide only the value of recorded AC50 for O=C(c1nnc(-c2ccn(C(F)F)n2)o1)N1CCc2[nH]cnc2[C@H]1c1cc2ccccn2n1 [Example 666]
## Result 500 to 1000 nM

## Task Provide only the value of recorded AC50 for O=C(c1ccnn1C(F)(F)F)N1CCc2[nH]cnc2[C@@H]1c1cc2ccccn2n1 [Example 717]
## Result 500 to 1000 nM

## Task Provide only the value of recorded AC50 for CC(C)(O)c1nc(C(F)F)c(C(=O)N2CCc3[nH]cnc3[C@@H]2c2cc3c(Cl)cccn3n2)o1 [Example 701]
## Result 1000 to 5000 nM
